EXPERIMENTAL TARGET: HBsAg of HBV genotype D, serotype ayw (Hepatitis B virus)
ASSAY INFO: cell-based or functional assay
Overview of recorded Virus neutralization EC50 for various binders
Return type: number; implicit unit nM.

# count of solved cases: 2
# BINDER, UNITS TEXT, Virus neutralization EC50
measured = [
    ("NOV3841 (antibody, human IgG1, lambda, V domains shown, Full human IgG1 (lambda) expressed in CHO cells) VH: EVQLLESGGGLVQPGGSRRLSCAASGFTFSYYGMNWVRQAPGKGLEWVSGITQSGSITYYADTVKGRFSISRDNSKNTLFLQMNSLRAEDTAVYYCAKVGVRSSSGMWDLDYWGQGTLVTVSS VL: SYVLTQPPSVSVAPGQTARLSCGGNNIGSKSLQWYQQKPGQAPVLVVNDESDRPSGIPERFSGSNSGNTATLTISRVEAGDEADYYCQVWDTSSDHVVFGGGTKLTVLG", "nM", 0.74),
    ("NOV3831 (antibody, human IgG1, lambda, V domains shown, Full human IgG1 (lambda) expressed in CHO cells) VH: EMQVLESGGGLVQPGGSLRLSCAASGFTFNNYAMSWVRQVPGKGLEWVSSISGSGGSTYYADSVKGQFTISRDNSKNTLYLQMNSLRAEDTAVYYCAKSSILSGGHARVYGIDVWGQGTTVTVSS VL: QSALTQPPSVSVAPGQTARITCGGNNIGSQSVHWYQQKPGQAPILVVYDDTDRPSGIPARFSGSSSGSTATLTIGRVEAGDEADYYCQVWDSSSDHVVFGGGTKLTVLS", "nM", 0.026),
]

Lab note: next binder to report on.
Sample NOV3837 (antibody, human IgG1, kappa, V domains shown, Full human IgG1 (kappa) expressed in CHO cells) VH: QVQLQESGGRLVRPGGSLRLSCAASGFIFTDYYMTWIRQAPGKGPEWIAFITSGGETTYYADSVKGRFTISRDNAKKSLFLQMYSLRADDTAVYYCVRAHFDGYQYDTRGDFTYYFDNWGLGTLVSVSS VL: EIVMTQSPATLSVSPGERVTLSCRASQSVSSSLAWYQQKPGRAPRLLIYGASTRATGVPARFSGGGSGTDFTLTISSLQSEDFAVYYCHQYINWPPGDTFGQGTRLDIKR ; Virus neutralization EC50 observed: 0.049
